biological target: StGyrA-CTD wild type (Salmonella enterica serovar Typhi CT18, UniProt A0A1U7FVV6 530-840); experiment: fluorescence binding; 1 mM Mg2+; details: protein: recombinant; tags: C-terminal 6xHis (pET-28a); chain copies: 2; blunt
metric: Kd (nM)
Answers are plain numbers, in nM.

## Task Could you share which Kd value was measured for FAM-37 bp DNA (dsDNA) DNA 1: TAAAGTCTAGAGACACGCATAGTCAATGACGGAGTTA DNA 2: TAACTCCGTCATTGACTATGCGTGTCTCTAGACTTTA ?
## Result 122
